Numbers sourced from patent US20040152670A1.

System: Group II/III metabotropic glutamate receptors (mGluRs)
Assay: Cyclic AMP assay in rat cortical slices (forskolin-induced cyclic AMP accumulation)
Type: cell-based, Sprague Dawley rat
Conditions: inhibition of forskolin-induced cyclic AMP accumulation, read-out: Group II/III Agonist EC50
pEC50: −log10 of the molar value.
Each record here notes measured pEC50.
result-type: pEC50

molecule="N[C@@]1(C(=O)O)C[C@H](C(=O)O)c2ccccc21 (stereo in doubt) [Compound 4b, Cis-1-aminoindane-1,3-dicarboxylic acid]" experimental_result=5.68
molecule="N[C@]1(C(=O)O)C[C@@H](CC(=O)O)c2ccccc21 (relative stereo) [Compound 13]" experimental_result=6.00
molecule="NC(C(=O)O)C1c2ccccc2CC1CC(=O)O (stereo not drawn) [Compound 18, 1-[2-amino]-2-indanediacetic acid]" experimental_result=6.34
